Data origin, for the record: paper PMC9706486

Target: TIR1–ASK1–IAA7 auxin receptor complex (ASK1–TIR1–Aux/IAA–IAA receptor complex) (Arabidopsis thaliana, UniProt Q570C0)
Construct: ASK1–TIR1 co-purified from insect cells; IAA7 ORF as recombinant His8-MBP fusion (pET28-His8-MBP vector); mixed at molar ratio 1:3 (ASK1–TIR1 : IAA7); with SKP1-like protein 1A; Auxin-responsive protein IAA7
Sequence (Q570C0 1-594): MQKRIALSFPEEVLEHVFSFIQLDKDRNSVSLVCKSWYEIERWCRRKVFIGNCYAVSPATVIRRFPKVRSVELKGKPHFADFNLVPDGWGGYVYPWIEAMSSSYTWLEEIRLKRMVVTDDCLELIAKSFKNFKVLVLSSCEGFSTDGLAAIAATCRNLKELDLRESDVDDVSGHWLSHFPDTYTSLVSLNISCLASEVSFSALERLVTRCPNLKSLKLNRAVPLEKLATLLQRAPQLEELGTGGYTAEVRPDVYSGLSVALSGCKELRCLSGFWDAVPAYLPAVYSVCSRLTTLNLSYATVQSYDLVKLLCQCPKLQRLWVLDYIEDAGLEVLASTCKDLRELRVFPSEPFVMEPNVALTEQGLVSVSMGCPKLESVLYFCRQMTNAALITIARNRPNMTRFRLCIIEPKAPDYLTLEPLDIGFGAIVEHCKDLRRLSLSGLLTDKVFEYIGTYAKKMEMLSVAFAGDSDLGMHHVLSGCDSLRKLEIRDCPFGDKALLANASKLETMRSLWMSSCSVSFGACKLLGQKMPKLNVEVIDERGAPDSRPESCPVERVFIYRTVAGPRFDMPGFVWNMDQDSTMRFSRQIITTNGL
Sequence (Q39255 1-160 partner): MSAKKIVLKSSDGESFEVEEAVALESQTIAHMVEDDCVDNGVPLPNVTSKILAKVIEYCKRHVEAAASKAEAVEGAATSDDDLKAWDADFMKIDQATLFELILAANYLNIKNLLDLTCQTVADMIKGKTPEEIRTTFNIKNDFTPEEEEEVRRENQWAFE
Sequence (Q38825 1-243 partner): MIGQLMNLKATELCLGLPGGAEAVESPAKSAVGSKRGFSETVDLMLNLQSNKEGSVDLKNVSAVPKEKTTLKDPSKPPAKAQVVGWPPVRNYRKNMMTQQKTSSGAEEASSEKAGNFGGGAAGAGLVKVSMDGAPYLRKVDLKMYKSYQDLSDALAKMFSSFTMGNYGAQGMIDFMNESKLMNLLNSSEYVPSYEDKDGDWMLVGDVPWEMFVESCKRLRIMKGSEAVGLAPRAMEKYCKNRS
Experiment: competitive radioligand displacement of [3H]-InsP6, Ni-NTA pull-down
pIC50: −log10 of the molar value.
measured_property: pIC50

In: Please list pIC50 recorded for the compound O=P(O)(O)O[C@@H]1[C@@H](OP(=O)(O)O)[C@H](OP(=O)(O)O)[C@@H](O)[C@@H](OP(=O)(O)O)[C@H]1OP(=O)(O)O [InsP5 [3-OH]]
Out: 7.51

In: Given "O=P(O)(O)O[C@H]1[C@@H](OP(=O)(O)O)[C@H](OP(=O)(O)O)[C@@H](OP(=O)(O)OP(=O)(O)O)[C@H](OP(=O)(O)O)[C@H]1OP(=O)(O)O" , respond with its pIC50.
Out: 7.70

(P) O=P(O)(O)O[C@H]1[C@H](OP(=O)(O)O)[C@@H](OP(=O)(O)O)[C@H](OP(=O)(O)O)[C@@H](OP(=O)(O)O)[C@H]1OP(=O)(O)O
(Q) O=P(O)(O)O[C@@H]1[C@@H](OP(=O)(O)O)[C@@H](OP(=O)(O)O)[C@@H](O)[C@H](OP(=O)(O)O)[C@H]1OP(=O)(O)O [InsP5 [1-OH]]
(R) O=P(O)(O)O[C@H]1[C@@H](OP(=O)(O)O)[C@H](OP(=O)(O)O)[C@@H](O)[C@H](OP(=O)(O)O)[C@H]1OP(=O)(O)O [InsP5 [5-OH]]
In: // ascending sort on recorded pIC50 Order the labels as requested and give them as your answer.
Out: Q, R, P
(Q: 6.94, R: 7.47, P: 7.72)
